Listing: Growth inhibition rate, Post-emergence treatment, Echinochloa crus-galli (L.) Beauv. of selected molecules
System: Echinochloa crus-galli (L.) Beauv.
Test: Bioassay of herbicidal activity in greenhouse (further screening)
Format: in vivo
Details: post-emergence; dose 15 g a.i./hm^2
Value and unit, in that order.

Below are worked cases with known answers.
Cn1c(C(F)(F)F)cc(=O)n(-c2cc(C3=NOC(C)(C(=O)OCC4CCCO4)C3)c(Cl)cc2F)c1=O (centres unmarked) [Compound 398] = 75%
Cn1c(C(F)(F)F)cc(=O)n(-c2cc(C3=NOC(C)(COC(=O)COc4ccc(Cl)cc4Cl)C3)c(Cl)cc2F)c1=O (centres unmarked) [Compound 83] = 25%
CC(C)C(=O)OCC1(C)CC(c2cc(-n3c(=O)cc(C(F)(F)F)n(C)c3=O)c(F)cc2Cl)=NO1 (centres unmarked) [Compound 46] = 25%
CCOCCOC(=O)C1(C)CC(c2cc(-n3c(=O)cc(C(F)(F)F)n(C)c3=O)c(F)cc2Cl)=NO1 (centres unmarked) [Compound 15] = 85%

Query CC(=O)OCCOC(=O)C1(C)CC(c2cc(-n3c(=O)cc(C(F)(F)F)n(C)c3=O)c(F)cc2Cl)=NO1 (centres unmarked) [Compound 17] yields Growth inhibition rate, Post-emergence treatment, Echinochloa crus-galli (L.) Beauv. of 60%

The measured values listed here are drawn from patent US10550111B2.
